Documented abundance fitness across a set of variants
B1: KAT8 regulatory NSL complex subunit 2, residues 28 to 91; numbered along this chain, Q9H9L4 (parent)
chain: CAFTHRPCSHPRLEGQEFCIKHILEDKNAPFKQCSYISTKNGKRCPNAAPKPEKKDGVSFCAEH

Variants of: B1
Assay: abundance fitness (aPCA) (normalised: wild type 0, dead -1); higher = more abundant; growth selection in yeast, the domain comes from the species named
Conditions: Homo sapiens
Respond numerically, and do not add a unit to the figure.

CAFTHRPCSHPRLEGQEFCIKHILEDKNAPFKQCSYISTKNGKRCPNAAPGPEKKDGVSFCAEH [K51G]
-0.033
CAFTHRPCSHPRLEGQEFCIKHILEDKNAPFKQCSYISTKNGKSCPNAAPKPEKKDGVSFCAEH [R44S]
-0.038
CAFTHRPCSHPRLEGQEWCIKHILEDKNAPFKQCSYISTKNGKRCPNAAPKPEKKDGVSFCAEH [F18W]
-0.356
CAFTHRPCSHPRLEGQEFCIKHILEDNNAPFKQCSYISTKNGKRCPNAAPKPEKKDGVSFCAEH [K27N]
-0.044
CAFTHRPCSHPRLAGQEFCIKHILEDKNAPFKQCSYISTKNGKRCPNAAPKPEKKDGVSFCAEH [E14A]
-0.107

Recorded abundance fitness for CAFTHRPCSHPRLEGNEFCIKHILEDKNAPFKQCSYISTKNGKRCPNAAPKPEKKDGVSFCAEH [Q16N] , please?
-0.25

Recorded abundance fitness for CAFTHRPCNHPRLEGQEFCIKHILEDKNAPFKQCSYISTKNGKRCPNAAPKPEKKDGVSFCAEH [S9N] , please?
-0.313

Recorded abundance fitness for CAFTHRPCSSPRLEGQEFCIKHILEDKNAPFKQCSYISTKNGKRCPNAAPKPEKKDGVSFCAEH [H10S] , please?
-0.042
